Biological target: T1, IL-1-R intracellular ligand protein encoded by clone 14w (interaction trap prey) (human, UniProt P17655 450-700)
T1 construct: Prey fusion expressed from pJG4-5 in yeast
T1 sequence: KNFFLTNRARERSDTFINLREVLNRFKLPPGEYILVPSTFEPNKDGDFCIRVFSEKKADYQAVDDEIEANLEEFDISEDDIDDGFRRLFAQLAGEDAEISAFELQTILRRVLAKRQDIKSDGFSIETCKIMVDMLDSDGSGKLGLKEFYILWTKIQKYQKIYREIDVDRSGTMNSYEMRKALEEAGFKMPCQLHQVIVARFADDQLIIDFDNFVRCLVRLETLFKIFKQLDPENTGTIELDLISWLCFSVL
Assay: yeast interaction trap, LacZ blueness on plates
Ends that are not written are not given here.
Measured metric: binding result

Binder: IL-1 receptor p80 (477-527) mutant bait K515R (receptor, also: fused to LexA (pEG202 bait), residues not given here) QDYEKMPESIKFIKQKHGAIRWSGDFTQGPQSAKTRFWRNVRYHMPVQRRS
Result: binds

Binder: IL-1 receptor p80 (477-527) mutant bait W514A (receptor, human, UniProt P14778 494-544, looked up, also: fused to LexA (pEG202 bait), residues not given here, range 477-527; not shown: LexA, fusion partner of baits made in vector pEG202) QDYEKMPESIKFIKQKHGAIRWSGDFTQGPQSAKTRFAKNVRYHMPVQRRS
Result: binds

# credit: patent US6899878
